# System: AMO-1 human multiple myeloma tumor cell line
# protocol: AMO-1 cell viability assay (CellTiter-Glo, 24 hours)
# Type: cell-based
# settings: Homo sapiens, AMO1, 24 h, read-out: AMO-1 Viability IC50 (μM, 10% FBS), 10% FBS, 24 hours of compound treatment
Here, each record is paired with measured IC50 data.
Write the number in µM without appending the unit.

# annotated cases, reported IC50 shown
- CO[C@@H]1CO[C@H]2[C@@H]1OC[C@H]2OCCOc1ccc(-c2nccc(COc3ccc4cc3C[C@H](C(=O)O)Oc3ncnc5sc(-c6ccc(F)cc6)c(c35)-c3c(C)c(Cl)c(c(Cl)c3C)O[C@H](CN3CCN(C)CC3)CO4)n2)cc1: 0.000698
- COc1ccccc1-c1nccc(COc2ccc3cc2C[C@H](C(=O)O)Oc2ncnc4sc(-c5ccc(F)cc5)c(c24)-c2ccc(c(Cl)c2C)O[C@H](CN2CCN(C[C@H]4O[C@H](OC)[C@@H](OC)[C@@H](OC)[C@@H]4OC)CC2)CO3)n1: 0.03
- COCCOCCOCCOCCN1CCN(C[C@@H]2COc3ccc(OCc4ccnc(-c5ccccc5OC)n4)c(c3)C[C@H](C(=O)O)Oc3ncnc4sc(-c5ccc(F)cc5)c(c34)-c3ccc(c(Cl)c3C)O2)CC1 (atropisomer, axis not shown): 0.007

Now for a further compound.
Identify measured IC50 obtained with AMO-1 human multiple myeloma tumor cell line for COCCOCCO[C@]1(c2nccc(COc3ccc4cc3C[C@H](C(=O)O)Oc3ncnc5sc(-c6ccc(F)cc6)c(c35)-c3c(C)c(Cl)c(c(Cl)c3C)O[C@H](CN3CCN(C)CC3)CO4)n2)CC[C@H](OCC2COCCO2)CC1 (stereo partly shown) .
0.00107
